target-system: IL-17A (agonist in the IL-17RA/IL17RC dimerization assay) (UniProt Q16552 24-155)
Sequence (Q16552 24-155 limits assumed): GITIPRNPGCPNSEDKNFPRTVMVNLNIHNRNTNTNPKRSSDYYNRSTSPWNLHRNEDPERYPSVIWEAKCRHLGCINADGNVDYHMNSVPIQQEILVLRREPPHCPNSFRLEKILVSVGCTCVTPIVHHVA
experiment-description: cell-based or functional assay
measurement-label: IC50 in IL-17RA/IL7RC dimerization assay

Please indicate IC50 in IL-17RA/IL7RC dimerization assay recorded for Ac-VHVTIPAEWWEWVRR-NH2 [peptide of SEQ ID NO: 123] < 500 nM

Please indicate IC50 in IL-17RA/IL7RC dimerization assay recorded for Ac-VHFTFPQDLYNWVRR-NH2 [peptide of SEQ ID NO: 147] < 500 nM

Please indicate IC50 in IL-17RA/IL7RC dimerization assay recorded for Ac-VHFQFPQDWWEWFRR-NH2 [peptide of SEQ ID NO: 141] < 500 nM

Please indicate IC50 in IL-17RA/IL7RC dimerization assay recorded for Ac-IHVTVPADLWDWINK-NH2 [peptide of SEQ ID NO: 183] < 10000 nM
